system: BT474; assay: MTT cell proliferation, BT474; assay type: cell-based, human; conditions: Homo sapiens, BT-474, 72 h; day 3; read-out: Cell proliferation at d 3 BT474 EC50
Reported EC50 by item:
The response must be a number in µM with no trailing unit.

COMPOUND | ENDPOINT_NAME | NUMERIC_VALUE
CC(=O)OCCN1CCN(CC/C=C2/c3ccccc3Sc3ccc(Cl)cc32)CC1 | EC50 | 17.8

Fill in the blank: the reported EC50 of `O=c1c2ccccc2sn1-c1ccc(Cl)cc1` is ____. 6.9

Record request: EC50 value, item O=C1c2ccccc2[Se](=O)N1c1ccccc1 (stereo not drawn) [EB1, Ebselen oxide] 5.5

Endpoint output: EC50 of `NCCN1CCN(CC/C=C2/c3ccccc3Sc3ccc(C(F)(F)F)cc32)CC1` . Value? 0.23

Entry under review: `FCCN1CCN(CC/C=C2/c3ccccc3Sc3ccc(C(F)(F)F)cc32)CC1` . Reported EC50? 16.5

Requested field: EC50. Item: `Cc1ccc(-n2sc3ccccc3c2=O)cc1` 11.7

* * *

Listed next: entries and their corresponding EC50.
Target: ErbB2 (Homo sapiens)
Experiment: ErbB2 phosphorylation in SKBR3 cells, dot blot (4G10)
Assay type: cell-based
Design: endogenous in cells; host or cells: SKBR3
Procedure: The ability of ZU and EB1 and their derivatives to inhibit ErbB2 activity in cellulo on a commonly used ErbB2-overexpressing breast cancer cell line SKBR3 was analyzed. SKBR3 were treated 24 h with increasing concentrations of the compounds (0.625-80 μM) and ErbB2 phosphorylation was addressed by dot blot analysis using an anti-phosphotyrosine antibody (clone 4G10). Quantifications show the result of two independent experiments.
Your answer should be a plain number; it is taken to be in µM.

COMPOUND | EC50 [µM]
NCCN1CCN(CC/C=C2/c3ccccc3Sc3ccc(C(F)(F)F)cc32)CC1 [ZUc] | 5.13

For the next question, use this compound.
For FCCN1CCN(CC/C=C2/c3ccccc3Sc3ccc(C(F)(F)F)cc32)CC1 [ZUd] , what is its reported EC50? 20.4

* * *

biological target: ErbB2 (Homo sapiens, UniProt P04626); assay: ErbB2 phosphorylation in SKBR3 cells, dot blot (4G10); type: cell-based; parameters: endogenous in cells; host or cells: SKBR3; conditions: SKBR3, 24 h; read-out: IC50 ErbB2 phosphorylation
Sequence (P04626 23-1255): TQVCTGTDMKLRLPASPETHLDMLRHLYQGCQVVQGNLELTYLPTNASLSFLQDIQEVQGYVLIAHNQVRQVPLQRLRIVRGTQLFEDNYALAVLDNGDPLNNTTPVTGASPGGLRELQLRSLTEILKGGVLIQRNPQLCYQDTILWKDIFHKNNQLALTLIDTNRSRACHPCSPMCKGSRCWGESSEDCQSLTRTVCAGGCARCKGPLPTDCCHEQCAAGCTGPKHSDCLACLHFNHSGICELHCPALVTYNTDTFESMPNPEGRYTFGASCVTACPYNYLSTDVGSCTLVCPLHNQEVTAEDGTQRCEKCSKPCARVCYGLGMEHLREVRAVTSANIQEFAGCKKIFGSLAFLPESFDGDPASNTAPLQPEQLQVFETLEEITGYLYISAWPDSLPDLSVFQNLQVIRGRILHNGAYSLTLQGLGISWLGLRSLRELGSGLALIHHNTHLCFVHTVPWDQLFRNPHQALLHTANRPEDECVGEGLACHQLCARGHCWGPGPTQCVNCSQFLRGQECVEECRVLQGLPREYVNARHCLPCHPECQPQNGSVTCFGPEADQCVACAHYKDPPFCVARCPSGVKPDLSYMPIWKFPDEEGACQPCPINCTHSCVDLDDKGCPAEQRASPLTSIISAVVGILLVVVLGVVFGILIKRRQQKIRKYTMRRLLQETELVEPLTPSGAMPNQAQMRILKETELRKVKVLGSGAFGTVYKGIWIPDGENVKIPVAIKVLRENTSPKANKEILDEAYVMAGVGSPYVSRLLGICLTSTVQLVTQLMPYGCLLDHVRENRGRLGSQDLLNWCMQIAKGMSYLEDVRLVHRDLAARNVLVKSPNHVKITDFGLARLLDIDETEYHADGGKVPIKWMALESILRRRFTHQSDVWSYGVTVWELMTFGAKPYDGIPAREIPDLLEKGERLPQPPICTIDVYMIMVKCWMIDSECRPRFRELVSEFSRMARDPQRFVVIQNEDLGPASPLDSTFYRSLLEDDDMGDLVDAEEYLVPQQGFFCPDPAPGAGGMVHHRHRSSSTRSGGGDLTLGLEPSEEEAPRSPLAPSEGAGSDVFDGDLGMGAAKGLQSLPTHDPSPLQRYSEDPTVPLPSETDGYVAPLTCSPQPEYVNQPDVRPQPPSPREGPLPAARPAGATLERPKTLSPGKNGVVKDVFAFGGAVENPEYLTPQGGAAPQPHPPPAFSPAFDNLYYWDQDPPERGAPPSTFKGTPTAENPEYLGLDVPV
Here the recorded IC50 is given for each entry.

COMPOUND | ENDPOINT_NAME | RESULT
Cc1ccc(-n2sc3ccccc3c2=O)cc1 | IC50 | 18 to 20 µM
CC(=O)OCCN1CCN(CC/C=C2/c3ccccc3Sc3ccc(Cl)cc32)CC1 | IC50 | 5 to 35 µM
CN1CCN(CC/C=C2/c3ccccc3Sc3ccc(S(=O)(=O)N(C)C)cc32)CC1 | IC50 | 5 to 35 µM
O=C1c2ccccc2[Se](=O)N1c1ccccc1 (centres unmarked) [EB1, Ebselen oxide] | IC50 | 20 µM

Look up IC50 with ErbB2 (Homo sapiens, UniProt P04626) for this compound: `O=c1c2ccccc2sn1-c1ccc(Cl)cc1` 18 to 20 µM

* * *

molecular target: ErbB2 (Homo sapiens); assay: ErbB2 phosphorylation in SKBR3 cells, dot blot (4G10); type: cell-based; design: endogenous in cells; host or cells: SKBR3; conditions: SKBR3, 24 h; read-out: ErbB2 activation 24 h EC50
For each record, check the reported EC50: if it is below 30 µM write TRUE, else write FALSE.

MOLECULE | CAT
O=C1c2ccccc2[Se](=O)N1c1ccccc1 (centres unmarked) [EB1, Ebselen oxide] | TRUE
O=c1c2ccccc2[se]n1-c1ccccc1 [EBa, reference compound] | FALSE
O=c1c2ccccc2sn1-c1ccc(Cl)cc1 [EB3] | TRUE
CN1CCN(CC/C=C2/c3ccccc3Sc3ccc(S(=O)(=O)N(C)C)cc32)CC1 [ZU2] | FALSE
CCOC(=O)C1CCN(CCC=C2c3ccccc3Oc3ccccc32)CC1 [ZU6] | FALSE
CCOC(=O)C1CCN(CCC=C2c3ccccc3Sc3ccccc32)CC1 [ZU4] | FALSE
CC(=O)OCCN1CCN(CC/C=C2/c3ccccc3Sc3ccc(Cl)cc32)CC1 [ZU5] | FALSE

We next turn to a different molecule, shown below.
State whether 30 µM exceeds EC50 recorded for Cc1ccc(-n2sc3ccccc3c2=O)cc1 [EB2] . TRUE
